System: LXRb homodimer (NR concentration 270 nM)
Test: PBM binding z-score (relative to random genomic background probes); higher = stronger binding; sequences stand for … in GC…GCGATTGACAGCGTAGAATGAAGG
I'd appreciate it if you could label each record using PBM binding z-score and these ranges: LOW = under -0.3, MID = from -0.3 up to 0.8, HIGH = 0.8 and over

q: Bin? `GCGACTGGGGGATCAGCAGGTTACCATAACTTAA`
a: HIGH

q: Bin? `CCTACTGGGCCAAAAAGGTCATTGAAGCCGATAA`
a: MID

q: Bin? `AGTCAAAGTTCATCTAGGTAACGTATGATATGCT`
a: HIGH

q: Bin? `CTACCAAGGTGAACATGGTCGTTGATTACTATTC`
a: LOW

q: Bin? `TTACCTAGGTGAAGGTCGTTGATCCCTCTGTAGA`
a: LOW

q: Bin? `CCTGCTAGGTCAATCGTCAGCTAAAGCAGCTCGC`
a: MID

q: Bin? `GCTATTACTTGAAAGGGCAACCGAATGATTCTCG`
a: MID

q: Bin? `ATATGTAGGTTAAGGGTCTTTCAGGTTGGTTCGC`
a: HIGH

q: Bin? `CGACCAAGGTCAGCAGGTCAGTGAAAGCGACGTG`
a: LOW

q: Bin? `CAAACTAGGTCGAAGGTCAAAGTCGAGCCAACCA`
a: MID

q: Bin? `CGTCAAAGTTCAAGGTAACGTTACAGAAAGCAGC`
a: HIGH

====

System: LXRb:RXRa (NR concentration 270 nM, RXRa partner concentration 90 nM)
Assay: PBM binding z-score (relative to random genomic background probes); higher = stronger binding; sequences stand for … in GC…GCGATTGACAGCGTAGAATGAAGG
If the reported PBM binding z-score equals or exceeds 1, assign Yes. If not, assign No.

q: Does the reported PBM binding z-score for `GCTTACGGGTCAAAGGTTATTGCATGAATAGAAT` fall at or above the 1 mark?
a: Yes

q: Does the reported PBM binding z-score for `ACTAGCAGGCCAAGATTGGGTCACTCAAACAAAG` fall at or above the 1 mark?
a: No

q: Does the reported PBM binding z-score for `ATACCAAGGTGATCGTGAGGTCGTTGAGACTAAC` fall at or above the 1 mark?
a: No

q: Does the reported PBM binding z-score for `TAGCGTAGGTCATGGGCCAGTATACCACGCGAAC` fall at or above the 1 mark?
a: Yes

q: Does the reported PBM binding z-score for `CCTTACGGGTTACTGACAGGTTATAGCATTTGGA` fall at or above the 1 mark?
a: Yes

q: Does the reported PBM binding z-score for `CTCGACAGGTCGTGCTCAGGTGAGTATACCAAAC` fall at or above the 1 mark?
a: No

q: Does the reported PBM binding z-score for `ATATGGAGGTTATCGGGTCATTCAGTTTGCGCAT` fall at or above the 1 mark?
a: Yes

q: Does the reported PBM binding z-score for `CACGAAAGGTCGTGCTCAGGTGAGTATACCAAAC` fall at or above the 1 mark?
a: Yes

q: Does the reported PBM binding z-score for `CCTAGCAGGCTAGGGTCACTCAAGCATTTCGCTT` fall at or above the 1 mark?
a: Yes

q: Does the reported PBM binding z-score for `GCTTGTAGATCCAGGTTAAGAAAGACTAAGCTAA` fall at or above the 1 mark?
a: No

q: Does the reported PBM binding z-score for `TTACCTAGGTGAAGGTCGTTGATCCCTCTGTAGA` fall at or above the 1 mark?
a: Yes

q: Does the reported PBM binding z-score for `CAAACTAGGTCAAAGGCCAAAGTCGAGCCAACCA` fall at or above the 1 mark?
a: Yes

q: Does the reported PBM binding z-score for `ATCGATAGGTCGTGAGGTGAGTATACAGAAAGGC` fall at or above the 1 mark?
a: Yes

q: Does the reported PBM binding z-score for `CCTTACTGGTCACTGACAGGTTATAGCATTTGGA` fall at or above the 1 mark?
a: No

q: Does the reported PBM binding z-score for `TCTTGTAGATCAAAGGGTAAGAAAGCCGAAGCCT` fall at or above the 1 mark?
a: No

q: Does the reported PBM binding z-score for `TCTTGTAGATCAAGCTGGTTAAGAAAGCCTGAGT` fall at or above the 1 mark?
a: No

q: Does the reported PBM binding z-score for `ATTTCTAGGTAACAAGTTCAGTGAAAGAGAGGAC` fall at or above the 1 mark?
a: Yes

q: Does the reported PBM binding z-score for `AGAATGAGGTTACCAAAGCTCAGGGAAACGCTTG` fall at or above the 1 mark?
a: Yes

q: Does the reported PBM binding z-score for `CCTGCTAGGTCAATGGTCGGCTAAAGCAGCTCGC` fall at or above the 1 mark?
a: Yes

q: Does the reported PBM binding z-score for `CGTCAAAGTTCCACTAAGGTAACGTAAAGCACGC` fall at or above the 1 mark?
a: No

q: Does the reported PBM binding z-score for `TCTAGCAGGCCAGAGAGTCACTCAAGAGGTACGG` fall at or above the 1 mark?
a: No

q: Does the reported PBM binding z-score for `CCTTACGGGTCATGAGGTTATAGCACGACGAGCG` fall at or above the 1 mark?
a: Yes

q: Does the reported PBM binding z-score for `TAGCCTAGGTCATCGGGCCAGTATAGTACGCATC` fall at or above the 1 mark?
a: Yes

q: Does the reported PBM binding z-score for `ATCTCTAGGTAACCAAGTTCAGGGAATGCCGAAC` fall at or above the 1 mark?
a: No

q: Does the reported PBM binding z-score for `AGAACGAGTGCACGCTGAGTTGATAGCAGAGTAG` fall at or above the 1 mark?
a: No

q: Does the reported PBM binding z-score for `CAAACTAGGTCATCCAGGACAGTGAATACATTGA` fall at or above the 1 mark?
a: Yes

q: Does the reported PBM binding z-score for `TAGCCTAGGTCATTCAGGGGCCAGGATAGAAAGC` fall at or above the 1 mark?
a: Yes

q: Does the reported PBM binding z-score for `CCGACTGGGCCAAAGGTCATTGATTCCAATGCTC` fall at or above the 1 mark?
a: Yes

q: Does the reported PBM binding z-score for `ATCGAAAGGTCGACGAGGTGCGTATACACCGTTT` fall at or above the 1 mark?
a: Yes

q: Does the reported PBM binding z-score for `CCTTACGGGTCACGAGTTTATAGCACGACGAGCG` fall at or above the 1 mark?
a: Yes

q: Does the reported PBM binding z-score for `AGAACGAGGGCACGATGAGTTGATAGCAGAGTAG` fall at or above the 1 mark?
a: No

q: Does the reported PBM binding z-score for `TATACAGGGTCAAAGGCCGGAGTACGAATGTCGA` fall at or above the 1 mark?
a: Yes

q: Does the reported PBM binding z-score for `TCTCGGAGGACATGAAGGTCAGAGCTTTCCAGAG` fall at or above the 1 mark?
a: Yes

q: Does the reported PBM binding z-score for `TATACAGGGTCAAAGGCCAGAGAACGAATGTCGA` fall at or above the 1 mark?
a: Yes

q: Does the reported PBM binding z-score for `CCTTACGGGTCACGAGGTTATAGCCCGACGAGCG` fall at or above the 1 mark?
a: Yes

q: Does the reported PBM binding z-score for `GCTTACGGGTAAAAGGTTATAGCATGAATAGAAT` fall at or above the 1 mark?
a: Yes

q: Does the reported PBM binding z-score for `ATCGAAAGATCGTGAGGTGAGTATACAGAAAGGC` fall at or above the 1 mark?
a: No

q: Does the reported PBM binding z-score for `ATCTCTAGGTAACCAAGTTCAGTAAATGCCGAAC` fall at or above the 1 mark?
a: Yes

q: Does the reported PBM binding z-score for `AGGATGAGGTTAAGATCAGGGAAACAGAATACAT` fall at or above the 1 mark?
a: Yes

q: Does the reported PBM binding z-score for `TCATATAGGTAAAAGGAGAAAGTCGGTGTGGTAA` fall at or above the 1 mark?
a: No

q: Does the reported PBM binding z-score for `AGTCAAAGTTGACTAGGTAACGTAAGATTCAGCT` fall at or above the 1 mark?
a: No

q: Does the reported PBM binding z-score for `ACAAGCAGGCCAAGGGTCACTCAAGATTAGTCCG` fall at or above the 1 mark?
a: Yes

q: Does the reported PBM binding z-score for `TCTCGGATGACACGAAGGTCAGAGCTTTCCAGAG` fall at or above the 1 mark?
a: Yes

q: Does the reported PBM binding z-score for `CAAACTAGGTGACCGGAAGGTCAAAGTCCGCATG` fall at or above the 1 mark?
a: Yes

q: Does the reported PBM binding z-score for `ACTTACGGGTCCACGAGGTTATAGCACGCGTATA` fall at or above the 1 mark?
a: Yes

q: Does the reported PBM binding z-score for `TCTGCTACGTCAGTTGGTCAGCTAACGAGCTGCC` fall at or above the 1 mark?
a: No

q: Does the reported PBM binding z-score for `ATCTCTAGGCAAAAGTTCAGTGAATCCCGAGGAT` fall at or above the 1 mark?
a: No

q: Does the reported PBM binding z-score for `CGTCATAGTTCAAGGTAACGTAACAGAAAGCAGC` fall at or above the 1 mark?
a: Yes

q: Does the reported PBM binding z-score for `GGAACGAGGGCAAAGTAGATAGCATCTGTCGACG` fall at or above the 1 mark?
a: No
